This collection of values is drawn from paper PMC5367588.

Test: In vivo pharmacokinetics and biodistribution
Design: species or system tumor-bearing nude mice
Settings: female, BALB/c (nude), mouse, lung, iv, 5 mg/kg
endpoint.name: AUC(0-inf) (µg·h/mL)

INSERT INTO measurements (compound, endpoint_name, value) VALUES
  ('CC[C@@]1(O)C(=O)OCc2c1cc1n(c2=O)Cc2cc3cc(O)ccc3nc2-1 [10-HCPT, 10-Hydroxycamptothecin, reference compound]', 'AUC(0-inf)', 130);

====

Assay: In vivo pharmacokinetics and biodistribution
Design: species or system tumor-bearing nude mice
Details: female, BALB/c (nude), mouse, tumor, iv, 5 mg/kg
endpoint.name: AUC(0-inf) (ng·h/mL)

INSERT INTO assay_data (compound, value) VALUES
  ('CC[C@@]1(O)C(=O)OCc2c1cc1n(c2=O)Cc2cc3cc(O)ccc3nc2-1 [10-HCPT, 10-Hydroxycamptothecin, reference compound]', 21000);

====

Experiment: In vivo pharmacokinetics and biodistribution
Parameters: species or system tumor-bearing nude mice
Settings: female, BALB/c (nude), mouse, heart, iv, 5 mg/kg
endpoint.name: AUC(0-inf) (ng·h/mL)

INSERT INTO measurements (molecule, value) VALUES
  ('CC[C@@]1(O)C(=O)OCc2c1cc1n(c2=O)Cc2cc3cc(O)ccc3nc2-1 [10-HCPT, 10-Hydroxycamptothecin, reference compound]', 11600);

====

Assay: In vivo pharmacokinetics and biodistribution
Design: species or system tumor-bearing nude mice
Details: female, BALB/c (nude), mouse, spleen, iv, 5 mg/kg
endpoint.name: MRT inf (h)

INSERT INTO assay_data (compound, value) VALUES
  ('CC[C@@]1(O)C(=O)OCc2c1cc1n(c2=O)Cc2cc3cc(O)ccc3nc2-1 [10-HCPT, 10-Hydroxycamptothecin, reference compound]', 5.68);

====

Assay: In vivo pharmacokinetics and biodistribution
Parameters: species or system tumor-bearing nude mice
Settings: female, BALB/c (nude), mouse, lung, iv, 5 mg/kg
endpoint.name: MRT inf (h)

INSERT INTO assay_data (compound, units, value) VALUES
  ('CC[C@@]1(O)C(=O)OCc2c1cc1n(c2=O)Cc2cc3cc(O)ccc3nc2-1 [10-HCPT, 10-Hydroxycamptothecin, reference compound]', 'h', 4.79);

====

Test: In vivo pharmacokinetics and biodistribution
Set-up: species or system tumor-bearing nude mice
Conditions: female, BALB/c (nude), mouse, liver, iv, 5 mg/kg
endpoint.name: AUC(0-inf) (ng·h/mL)

INSERT INTO results (compound, units, value) VALUES
  ('CC[C@@]1(O)C(=O)OCc2c1cc1n(c2=O)Cc2cc3cc(O)ccc3nc2-1 [10-HCPT, 10-Hydroxycamptothecin, reference compound]', 'ng·h/mL', 28700);
